Test: gradient 5% acetonitrile 3 min, to 50% in 2 min, to 85% in 15 min, held 3 min, 100 µL/min
Details: column: Zorbax Extend-C18 2.1 x 50 mm; eluents: water / acetonitrile, 0.1% formic acid
Parameter threshold = 800 s. Response is Yes when RP-LC retention time meets or exceeds it, else No.

* CCCCCn1c(=O)c2ccccc2n(Cc2nc(-c3cccc(OCC)c3)no2)c1=O | Yes
* COc1ccccc1CC(=O)Nc1ccc2c(c1)Sc1ncccc1C(=O)N2C(C)C | Yes
* CCc1ccc(NC(=O)Cn2c(N)nc(CC)cc2=O)cc1 | No
* CCC1CN(C(=O)N2CCC(C(=O)NCCN3CCN(CC)CC3)CC2)c2ccccc2O1 (configuration not stated) | No
* Cc1c(C)n(CCCN2CCOCC2)c2ncn3nc(C(C)N4C(=O)c5ccccc5C4=O)nc3c12 (configuration not stated) | No
* COc1cc(C)c2c(c1C=O)Oc1c(c(C)c(O)c3c1C(O)OC3=O)OC2=O (configuration not stated) | Yes
* Cc1nnc(N2CCC(C(=O)NCCc3c[nH]c4ccccc34)CC2)c2nn(-c3ccccc3)c(C)c12 | No
* CCOC(=O)c1nc(NCc2cc(OC)ccc2OC)c2ccccc2n1 | No
* CCC(=O)N1CCc2c(sc3ncnc(NCc4cccnc4)c23)C1 | No
* CCc1nn(C)c(=O)c2cc(S(=O)(=O)NCc3ccc(F)c(Cl)c3)cn12 | Yes

###

Test: gradient 5% acetonitrile 3 min, to 50% in 2 min, to 85% in 15 min, held 3 min, 100 µL/min
Conditions: column: Zorbax Extend-C18 2.1 x 50 mm; eluents: water / acetonitrile, 0.1% formic acid
Parameter: RP-LC retention time (s)

- Cc1ccc(Cl)cc1NC(=O)N1CCC(OC2CCN(S(C)(=O)=O)CC2)CC1: 801
- Cc1ccc(NC(=O)C2CC(=O)N(c3ccc4c(c3)CCN4C(=O)C3CC3)C2)c(F)c1 (stereo not given): 787
- O=C(Cn1ccc2ccc(N3CCOCC3)nc21)NCc1ccc(F)c(Cl)c1: 920
- CCc1noc(NC(C)=O)c1-c1ccc(C)c(S(=O)(=O)Nc2ccc(C)c(Cl)c2)c1: 914
- CC1=C(c2ccc(C)c(C)c2)S(=O)(=O)N=C1N1CCCN(C(=O)NC2CCCC2)CC1: 876

###

# RP-LC retention time per record follows
Assay: gradient 5% acetonitrile 3 min, to 50% in 2 min, to 85% in 15 min, held 3 min, 100 µL/min
Details: column: Zorbax Extend-C18 2.1 x 50 mm; eluents: water / acetonitrile, 0.1% formic acid
Parameter: RP-LC retention time (s)

• COc1ccc(OC)c(NC(=O)NCCc2cn(C)c3ncccc23)c1 = 686
• CCOC(=O)c1cn(CC(=O)NC2CCCC2)c2nc(C)ccc2c1=O = 686
• CCCNc1cc(N2CCCC(CCC(=O)Nc3ccc4c(c3)OCO4)C2)ncn1 (centres undefined) = 691
• Fc1ccccc1-c1nc(-c2ccnc(N3CCCC3)c2)no1 = 702

###

Experiment: gradient 5% acetonitrile 3 min, to 50% in 2 min, to 85% in 15 min, held 3 min, 100 µL/min
Conditions: column: Zorbax Extend-C18 2.1 x 50 mm; eluents: water / acetonitrile, 0.1% formic acid
Parameter: RP-LC retention time (s)

- Cc1[nH]c(C(=O)N2CCCC(C(=O)N3CCN(c4ccccc4)CC3)C2)c(C)c1C (stereo not given): 853
- Cc1cc2[nH]c(C(=O)Nc3ccc(F)cc3)c(CN3CCOCC3)c2s1: 666
- CCN(C(=O)CN1C(=O)NC2(CCC(C)CC2)C1=O)c1cccc(C)c1 (stereo not given): 666
- COCCn1c(C2CCN(S(=O)(=O)c3ccc(C)c(Cl)c3)C2)nc2ccncc21 (stereo not given): 591
- CCOC(=O)c1c(S(=O)(=O)N2CCC(C(=O)Nc3ccc(C)c(F)c3)CC2)c(C)n(CC)c1C: 984
- Cc1nc(-c2csc(S(=O)(=O)N3CCCC(C(=O)Nc4ccccc4Cl)C3)c2)no1 (stereo not given): 975
- CN(CC1CCOC1)C(=O)Nc1ccc(F)cc1 (stereo not given): 671
- O=C(CCC1CCN(c2cc(NC3CC3)ncn2)CC1)NCCc1cccs1: 656
- Cc1ccc(-c2noc(-c3ccc(NCCCN4CCOCC4)nc3)n2)cc1: 695
- O=C1CC(c2ccccc2)Cc2[nH]c(=O)c(C(=O)Nc3cccc(C(F)(F)F)c3)cc21 (stereo not given): 1020
- CCCOc1nccnc1N1CCC(NC(=O)c2ccoc2)C1 (stereo not given): 585
- O=C(CCn1cnc2ccccc2c1=O)N1CCN(c2ccccn2)CC1: 578
- COc1cccc2c1OC1(C)CC2C(S(=O)(=O)c2ccc(C(C)C)cc2)C(=O)N1 (stereo not given): 938
- Cc1cccc(NC(=O)N2CCCC2c2cc(C)on2)c1 (stereo not given): 748
- Cn1c(CNC(=O)c2cn3ccccc3n2)nc2ccccc21: 564

###

Assay: gradient 5% acetonitrile 3 min, to 50% in 2 min, to 85% in 15 min, held 3 min, 100 µL/min
Details: column: Zorbax Extend-C18 2.1 x 50 mm; eluents: water / acetonitrile, 0.1% formic acid
Assign classes using reported RP-LC retention time values and the ranges low band (below 700 s), middle band (700 s to below 800 s), high band (800 s or more), please.

• CCOc1cc(=O)n2c(c1C(=O)NC1CCc3ccccc31)CCCCC2 (configuration not stated) = middle band
• CCN1CCN(CCNC(=O)CN2C(=O)C3CCCCN3c3ccc(C(=O)N4CCCC4)cc32)CC1 (configuration not stated) = low band
• CCCCOc1ccc(NC(=O)c2cc(=O)c3cc(C)cc(C)c3o2)c2cccnc12 = high band
• O=C(Nc1ccccc1)N1CCC(N2C[C@H]3C[C@H](C2)[C@H]2CCCC(=O)N2C3)CC1 = low band
• CCn1c(=O)sc2cc(S(=O)(=O)N3CCC(C(=O)NC4CC4)CC3)ccc21 = middle band
• O=C(Cc1ccccc1)NCc1nc(-c2cccc(-c3ccn[nH]3)c2)no1 = high band
• COC(=O)CNC(=O)N1CCc2cc(-c3ccc(C(=O)N4CCOCC4)cc3)ccc21 = low band
• Cc1ccc(C)c(NS(=O)(=O)c2cc(-c3[nH]ncc3C(=O)N3CCCC3)oc2C)c1 = middle band
• Cc1cccc(Nc2c(-c3ccccc3)nc3ncccn23)c1C = low band
• O=c1ccc(S(=O)(=O)N2CCCC2)cn1Cc1ccccc1Cl = high band
• CCOC(=O)c1nc(N(CCC(=O)OC)c2ccccc2)c2ccccc2n1 = high band

###

Experiment: gradient 5% acetonitrile 3 min, to 50% in 2 min, to 85% in 15 min, held 3 min, 100 µL/min
Conditions: column: Zorbax Extend-C18 2.1 x 50 mm; eluents: water / acetonitrile, 0.1% formic acid
Assign classes using reported RP-LC retention time values and the ranges class 0: < 700 s; class 1: ≥ 700 s and < 900 s; class 2: ≥ 900 s, please.

• CCc1nnc(C2CN(C)CC23CCN(S(=O)(=O)c2ccc(F)c(C)c2)CC3)o1 (configuration not stated) = class 0
• CCOc1ccc(-c2noc(Cn3nc(-c4ccccc4F)ccc3=O)n2)cc1 = class 2
• COc1ccc(NC(=O)c2cc(C)n3nc(-c4ccco4)cc3n2)cc1OC = class 2
• CSc1cccc(NC(=O)c2[nH]c3cc(C)sc3c2CN2CCOCC2)c1 = class 1
• CCN1CCN(c2c(C(=O)c3ccc(C)cc3)cnc3cc(OC)c(OC)cc23)CC1 = class 0
• COc1ccc(NC(=O)N2CCC(CCOc3cccnc3)CC2)cc1 = class 0
• CC(C)C(=O)Nc1ccc(C2(C(=O)N(C)Cc3ccccc3)CCCCC2)cc1 = class 2
• O=C(Nc1ccc2ccccc2c1)c1ccc(Cl)cc1Cl = class 2
• Cc1nn(C)c(C)c1S(=O)(=O)N1CCCC(Cc2nncn2-c2ccccc2)C1 (configuration not stated) = class 0
• CN(C1CCc2nn(C)c(=O)n2CC1)S(=O)(=O)c1ccccc1Cl (configuration not stated) = class 1
• COc1ccc(N2CCN(c3ncc4c(n3)CCN(Cc3ccc(C)cc3)C4)CC2)cc1 = class 0
• COCCn1cnc2c(-c3ccccc3)cn(CC(=O)NCC3CCCO3)c2c1=O (configuration not stated) = class 0
• O=C(NCc1ccccc1Cl)C1CCCN(C(=O)NC2CC2)C1 (configuration not stated) = class 0
• Cc1sc2ccn(C)c(=O)c2c1C(=O)NC(C)c1ccc(F)cc1 (configuration not stated) = class 1
• Cc1ccc(NS(=O)(=O)c2ccc3c(c2)CCCC(=O)N3)cc1Cl = class 1
• CC(C)n1cc(S(=O)(=O)Nc2cccc(Cl)c2)c2cccnc21 = class 2
• Cc1ccc(NC(=O)Nc2ccc3nnc(C4CCC4)n3c2)cc1Cl = class 1
• CC1=C(C#N)C(C)(C)C(C#N)=C(C)N1 = class 1
• COC(=O)c1c(C)[nH]c(C(=O)N2CCC(CC(=O)NC3CCCCCC3)CC2)c1C = class 1
